Entry source: paper PMC7382816

Exercise: state measured Tmax for each of the molecules provided.
# EXPERIMENT_SUMMARY: Single-dose pharmacokinetics in healthy volunteers under fasting and fed (high-fat breakfast) conditions, plasma concentrations by HPLC-MS, non-compartmental analysis
# Format: in vivo, human
# DETAILS: female, human, plasma, po, Fed, women, single oral dose, mean ± SD; read-out: Tmax
Give just the number in h; leave the unit off.

In: Given the molecule COCCCOc1ccnc(C[S+]([O-])c2nc3ccccc3[nH]2)c1C (stereo not drawn) [Rabeprazole, rabeprazole] , what is its reported Tmax?
Out: 7.6

In: Also COc1ccnc(C[S+]([O-])c2nc3ccc(OC(F)F)cc3[nH]2)c1OC (stereo not drawn) [Pantoprazole, pantoprazole] ?
Out: 8.4

In: For COc1ccc2[nH]c([S+]([O-])Cc3ncc(C)c(OC)c3C)nc2c1 (stereo not drawn) [Omeprazole, omeprazole] then?
Out: 5.4
